ASSAYED_SYSTEM: Tyrosine-protein kinase CSK (Homo sapiens) (UniProt P41240);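 note: each value is an averaged inhibition reading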
Sequence (P41240 2-450 limits assumed): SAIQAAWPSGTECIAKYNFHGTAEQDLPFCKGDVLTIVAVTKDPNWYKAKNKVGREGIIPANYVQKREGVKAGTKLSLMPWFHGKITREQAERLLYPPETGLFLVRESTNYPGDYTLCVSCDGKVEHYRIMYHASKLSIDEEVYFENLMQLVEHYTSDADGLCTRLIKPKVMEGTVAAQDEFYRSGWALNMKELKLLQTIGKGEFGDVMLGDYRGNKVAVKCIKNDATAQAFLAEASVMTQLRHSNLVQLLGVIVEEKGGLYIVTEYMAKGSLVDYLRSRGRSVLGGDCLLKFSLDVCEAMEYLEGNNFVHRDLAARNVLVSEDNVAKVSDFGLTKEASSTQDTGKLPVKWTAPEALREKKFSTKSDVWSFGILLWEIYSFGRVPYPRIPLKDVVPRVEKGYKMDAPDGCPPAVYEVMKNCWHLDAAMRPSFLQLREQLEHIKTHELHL
SETUP_CONDITIONS: at 1 µM
Label Satisfied when inhibition is at or above 10%; otherwise label Not satisfied.

MOLECULE_SMILES | CLASS_NAME
c1ccc(-c2nc3n(c2-c2ccc4c(c2)OCO4)CCC3)nc1 | Not satisfied
COc1cccc(-n2ncc3c(N/N=C/c4ccc(F)cc4)ncnc32)c1 | Satisfied
COc1ccc2c(-c3ccnc(Nc4cccc(OC(F)(F)F)c4)n3)cnn2n1 | Satisfied
COc1cc(Nc2nccc(Nc3ccc4c(C)n[nH]c4c3)n2)cc(OC)c1OC | Satisfied
Fc1ccc(-c2nn3ncccc3c2-c2ccnc(Nc3ccc4c(c3)OCCO4)n2)cc1 | Satisfied
c1ccc(COc2ccc(Nc3ncnc4ccc(-c5ccco5)cc34)cc2)cc1 | Not satisfied
CC(=O)NCc1cccc(C#Cc2cncnc2Nc2ccc(OCc3cccc(F)c3)c(Cl)c2)c1 | Not satisfied

Origin of measurements: ChEMBL document CHEMBL1961873
